Target Desc: TbtF
Method: fluorescence polarisation
Readout Name: IC50 (nM)

P. MDLNDLPMDVFELADSGAAVESLTAGHGMTEVGASCNCFCYICCSCSSA [TbtA V(−17)A]
Q. MDLNDLPMDVFELADSGVAVEALTAGHGMTEVGASCNCFCYICCSCSSA [TbtA S(−13)A]
R. MDLNDLPMAVFELADSGVAVESLTAGHGMTEVGASCNCFCYICCSCSSA [TbtA D(−26)A]
## Input From the items above, give an ordering by IC50 that starts at the lowest reported number. Your answer should be the labels, listed in the requested order.
## Output P, Q, R
(P: 490 nM, Q: 1410 nM, R: 8230 nM)
